Target: ALK (Homo sapiens)
Construct: purchased Eurofins DiscoverX KINOMEscan (scanTK)
Sequence (Q9UM73 19-1620): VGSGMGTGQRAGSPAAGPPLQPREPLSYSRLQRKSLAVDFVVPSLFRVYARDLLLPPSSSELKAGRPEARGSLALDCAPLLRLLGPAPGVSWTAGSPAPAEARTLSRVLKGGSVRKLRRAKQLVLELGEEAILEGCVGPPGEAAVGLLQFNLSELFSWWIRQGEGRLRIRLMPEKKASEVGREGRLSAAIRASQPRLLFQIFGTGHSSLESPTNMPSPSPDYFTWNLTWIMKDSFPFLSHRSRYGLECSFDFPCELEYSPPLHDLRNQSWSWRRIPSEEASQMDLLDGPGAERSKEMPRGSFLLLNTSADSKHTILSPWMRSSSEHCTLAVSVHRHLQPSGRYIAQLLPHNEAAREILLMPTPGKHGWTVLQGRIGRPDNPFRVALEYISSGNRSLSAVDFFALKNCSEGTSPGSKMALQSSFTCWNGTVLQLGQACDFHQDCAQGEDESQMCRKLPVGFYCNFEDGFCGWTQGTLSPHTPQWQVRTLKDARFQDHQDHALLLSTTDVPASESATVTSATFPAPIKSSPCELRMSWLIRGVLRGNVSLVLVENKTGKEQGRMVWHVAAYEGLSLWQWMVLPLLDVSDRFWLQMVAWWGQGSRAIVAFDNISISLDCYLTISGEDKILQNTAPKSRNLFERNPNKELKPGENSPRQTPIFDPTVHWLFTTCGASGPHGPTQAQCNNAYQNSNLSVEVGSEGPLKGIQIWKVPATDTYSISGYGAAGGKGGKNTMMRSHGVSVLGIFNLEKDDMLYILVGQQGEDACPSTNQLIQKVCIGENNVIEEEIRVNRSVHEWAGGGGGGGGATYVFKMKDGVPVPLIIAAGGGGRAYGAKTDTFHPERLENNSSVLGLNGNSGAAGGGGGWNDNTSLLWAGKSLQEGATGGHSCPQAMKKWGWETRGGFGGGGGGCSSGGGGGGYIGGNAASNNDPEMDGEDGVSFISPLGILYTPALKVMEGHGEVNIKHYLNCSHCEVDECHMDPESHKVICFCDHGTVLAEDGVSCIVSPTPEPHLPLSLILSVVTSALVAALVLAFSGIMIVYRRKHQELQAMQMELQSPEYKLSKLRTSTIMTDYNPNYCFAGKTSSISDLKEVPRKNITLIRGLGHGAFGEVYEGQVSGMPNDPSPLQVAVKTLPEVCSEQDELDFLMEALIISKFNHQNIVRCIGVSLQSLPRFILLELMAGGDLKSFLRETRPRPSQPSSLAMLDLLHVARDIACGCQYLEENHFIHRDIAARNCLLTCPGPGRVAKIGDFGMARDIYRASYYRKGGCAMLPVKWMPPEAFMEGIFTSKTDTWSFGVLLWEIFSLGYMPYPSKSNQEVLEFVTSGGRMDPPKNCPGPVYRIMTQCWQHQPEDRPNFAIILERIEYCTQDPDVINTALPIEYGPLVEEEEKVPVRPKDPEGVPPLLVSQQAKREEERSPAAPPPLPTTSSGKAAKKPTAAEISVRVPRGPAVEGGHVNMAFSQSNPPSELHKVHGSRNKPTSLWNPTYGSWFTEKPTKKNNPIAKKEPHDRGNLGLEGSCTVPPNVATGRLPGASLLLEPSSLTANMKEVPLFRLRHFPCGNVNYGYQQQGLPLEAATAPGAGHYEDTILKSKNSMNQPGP
Experiment: KINOMEscan ScanTK
Format: binding
Settings: @1000nM, read-out: %Control
observable: remaining binding at 1 µM (%)
Express your answer in %, writing the number without its unit.

CNC(=O)c1cnc(S(C)(=O)=O)nc1N1CCCC(n2nc(-c3ccc(Oc4ccccc4)cc3)c3c(N)ncnc32)C1 (centres unmarked); 83
C=CC(=O)N1CCC[C@@H](n2nc(-c3ccc(Oc4ccccc4)cc3)c3c(N)ncnc32)C1 [Compound 1g, Ibrutinib, reference compound]; 94
COC(=O)c1cnc(S(C)(=O)=O)nc1N1CCCC(n2nc(-c3ccc(Oc4ccccc4)cc3)c3c(N)ncnc32)C1 (centres unmarked); 100
CCOC(=O)c1cnc(S(C)(=O)=O)nc1N1CCC[C@@H](n2nc(-c3ccc(Oc4ccccc4)cc3)c3c(N)ncnc32)C1; 69

# ---- query compound ----
Q: Retrieve remaining binding at 1 µM measured for Cc1cnc(S(C)(=O)=O)nc1N1CCCC(n2nc(-c3ccc(Oc4ccccc4)cc3)c3c(N)ncnc32)C1 (centres unmarked) and print it.
Ans: 80

* * *

Target: TIE2 (Homo sapiens, UniProt Q02763)
Construct: purchased Eurofins DiscoverX KINOMEscan (scanTK)
Sequence (Q02763 23-1124): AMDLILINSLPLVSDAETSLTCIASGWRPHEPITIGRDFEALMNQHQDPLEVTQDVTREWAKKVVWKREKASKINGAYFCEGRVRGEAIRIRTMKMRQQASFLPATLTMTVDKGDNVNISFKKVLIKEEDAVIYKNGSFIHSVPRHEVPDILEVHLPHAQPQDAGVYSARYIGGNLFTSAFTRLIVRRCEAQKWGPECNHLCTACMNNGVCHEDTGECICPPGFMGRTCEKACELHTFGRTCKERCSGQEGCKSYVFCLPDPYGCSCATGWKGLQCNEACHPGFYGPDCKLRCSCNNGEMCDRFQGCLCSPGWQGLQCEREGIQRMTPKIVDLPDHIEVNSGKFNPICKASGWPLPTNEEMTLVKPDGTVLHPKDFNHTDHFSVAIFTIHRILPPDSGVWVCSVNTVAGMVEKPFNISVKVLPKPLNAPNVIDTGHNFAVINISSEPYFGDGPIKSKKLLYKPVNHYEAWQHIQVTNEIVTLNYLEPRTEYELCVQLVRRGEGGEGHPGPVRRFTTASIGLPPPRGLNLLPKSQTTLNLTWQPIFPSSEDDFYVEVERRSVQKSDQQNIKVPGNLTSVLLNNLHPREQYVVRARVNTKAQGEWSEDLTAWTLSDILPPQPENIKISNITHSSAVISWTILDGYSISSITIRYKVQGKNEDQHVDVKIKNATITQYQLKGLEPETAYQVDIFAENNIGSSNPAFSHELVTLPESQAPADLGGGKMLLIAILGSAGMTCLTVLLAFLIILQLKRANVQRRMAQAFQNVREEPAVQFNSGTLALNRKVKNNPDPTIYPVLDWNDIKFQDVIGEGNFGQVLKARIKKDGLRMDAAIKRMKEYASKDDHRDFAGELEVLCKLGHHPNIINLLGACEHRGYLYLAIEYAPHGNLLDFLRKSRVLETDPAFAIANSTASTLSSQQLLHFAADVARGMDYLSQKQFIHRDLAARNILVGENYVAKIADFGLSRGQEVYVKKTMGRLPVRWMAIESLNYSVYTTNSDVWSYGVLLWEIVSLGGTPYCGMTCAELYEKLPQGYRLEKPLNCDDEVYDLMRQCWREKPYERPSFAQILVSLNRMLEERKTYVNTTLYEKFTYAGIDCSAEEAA
Assay: KINOMEscan ScanTK
Assay type: binding
Conditions: @1000nM, read-out: %Control
observable: remaining binding at 1 µM (%)
Express your answer in %, writing the number without its unit.

Worked examples follow.
CCOC(=O)c1cnc(S(C)(=O)=O)nc1N1CCC[C@@H](n2nc(-c3ccc(Oc4ccccc4)cc3)c3c(N)ncnc32)C1; 90
CNC(=O)c1cnc(S(C)(=O)=O)nc1N1CCCC(n2nc(-c3ccc(Oc4ccccc4)cc3)c3c(N)ncnc32)C1 (stereo not shown); 74
COC(=O)c1cnc(S(C)(=O)=O)nc1N1CCCC(n2nc(-c3ccc(Oc4ccccc4)cc3)c3c(N)ncnc32)C1 (stereo not shown); 72

# ---- query molecule ----
Q: Retrieve remaining binding at 1 µM measured for Cc1cnc(S(C)(=O)=O)nc1N1CCCC(n2nc(-c3ccc(Oc4ccccc4)cc3)c3c(N)ncnc32)C1 (stereo not shown) and print it.
Ans: 91

* * *

Biological target: EPHA3 (Homo sapiens, UniProt P29320)
Construct: purchased Eurofins DiscoverX KINOMEscan (scanTK)
Sequence (P29320 21-983): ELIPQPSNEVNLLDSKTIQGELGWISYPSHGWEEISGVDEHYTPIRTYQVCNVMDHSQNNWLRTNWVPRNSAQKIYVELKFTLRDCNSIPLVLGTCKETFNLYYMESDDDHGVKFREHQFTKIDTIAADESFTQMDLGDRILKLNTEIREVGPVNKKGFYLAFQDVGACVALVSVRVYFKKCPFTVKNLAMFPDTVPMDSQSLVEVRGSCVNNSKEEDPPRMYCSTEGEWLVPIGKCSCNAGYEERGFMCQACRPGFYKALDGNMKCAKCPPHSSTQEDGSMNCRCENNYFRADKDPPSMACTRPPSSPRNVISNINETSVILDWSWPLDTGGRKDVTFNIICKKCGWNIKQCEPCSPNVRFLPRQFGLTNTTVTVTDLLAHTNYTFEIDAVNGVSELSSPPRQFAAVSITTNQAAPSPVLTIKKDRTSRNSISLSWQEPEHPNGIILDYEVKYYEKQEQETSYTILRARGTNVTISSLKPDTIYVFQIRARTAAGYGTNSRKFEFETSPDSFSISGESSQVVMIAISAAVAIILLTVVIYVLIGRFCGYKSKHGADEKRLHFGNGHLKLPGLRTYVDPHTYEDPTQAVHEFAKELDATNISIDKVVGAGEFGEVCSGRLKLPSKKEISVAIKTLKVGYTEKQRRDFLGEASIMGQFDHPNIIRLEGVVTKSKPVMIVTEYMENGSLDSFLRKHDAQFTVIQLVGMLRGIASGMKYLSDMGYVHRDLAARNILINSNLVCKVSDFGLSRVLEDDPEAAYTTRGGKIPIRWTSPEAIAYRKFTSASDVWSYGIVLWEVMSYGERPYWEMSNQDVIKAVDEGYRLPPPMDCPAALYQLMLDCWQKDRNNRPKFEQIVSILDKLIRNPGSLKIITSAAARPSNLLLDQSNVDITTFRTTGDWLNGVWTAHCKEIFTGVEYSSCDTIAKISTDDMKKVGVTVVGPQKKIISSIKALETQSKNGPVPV
Test: KINOMEscan ScanTK
Type: binding
Details: read-out: %Control @1000nM
observable: remaining binding at 1 µM (%)
Express your answer in %, writing the number without its unit.

Worked examples follow.
CNC(=O)c1cnc(S(C)(=O)=O)nc1N1CCCC(n2nc(-c3ccc(Oc4ccccc4)cc3)c3c(N)ncnc32)C1 (centres unmarked) [Compound 8d]; 84
Cc1cnc(S(C)(=O)=O)nc1N1CCCC(n2nc(-c3ccc(Oc4ccccc4)cc3)c3c(N)ncnc32)C1 (centres unmarked) [Compound 8a]; 81
COC(=O)c1cnc(S(C)(=O)=O)nc1N1CCCC(n2nc(-c3ccc(Oc4ccccc4)cc3)c3c(N)ncnc32)C1 (centres unmarked) [Compound 8b]; 77
C=CC(=O)N1CCC[C@@H](n2nc(-c3ccc(Oc4ccccc4)cc3)c3c(N)ncnc32)C1 [Compound 1g, Ibrutinib, reference compound]; 76

Q: Retrieve remaining binding at 1 µM measured for CCOC(=O)c1cnc(S(C)(=O)=O)nc1N1CCC[C@@H](n2nc(-c3ccc(Oc4ccccc4)cc3)c3c(N)ncnc32)C1 [Compound 8c] and print it.
Ans: 77

* * *

In this section we review reported difference in %Control versus compound Ib at 1 µM values for a set of molecules.
Biological target: FLT3(D835V) (Homo sapiens, UniProt P36888, D835V)
Construct: purchased Eurofins DiscoverX KINOMEscan (scanTK)
Test: KINOMEscan ScanTK
Format: binding
Details: @1000nM
Express your answer in %, writing the number without its unit.

Cc1cnc(S(C)(=O)=O)nc1N1CCCC(n2nc(-c3ccc(Oc4ccccc4)cc3)c3c(N)ncnc32)C1 (stereo not shown); 20.1
CCOC(=O)c1cnc(S(C)(=O)=O)nc1N1CCC[C@@H](n2nc(-c3ccc(Oc4ccccc4)cc3)c3c(N)ncnc32)C1; 46.1
COC(=O)c1cnc(S(C)(=O)=O)nc1N1CCCC(n2nc(-c3ccc(Oc4ccccc4)cc3)c3c(N)ncnc32)C1 (stereo not shown); 38.1

# ---- query molecule ----
Q: Please report difference in %Control versus compound Ib at 1 µM with FLT3(D835V) (Homo sapiens, UniProt P36888, D835V) for item CNC(=O)c1cnc(S(C)(=O)=O)nc1N1CCCC(n2nc(-c3ccc(Oc4ccccc4)cc3)c3c(N)ncnc32)C1 (stereo not shown) .
Ans: 13.1

* * *

Biological target: EGFR(T790M) (Homo sapiens, UniProt P00533, T790M)
Construct: purchased Eurofins DiscoverX KINOMEscan (scanTK)
Sequence (P00533 25-1210 T790M): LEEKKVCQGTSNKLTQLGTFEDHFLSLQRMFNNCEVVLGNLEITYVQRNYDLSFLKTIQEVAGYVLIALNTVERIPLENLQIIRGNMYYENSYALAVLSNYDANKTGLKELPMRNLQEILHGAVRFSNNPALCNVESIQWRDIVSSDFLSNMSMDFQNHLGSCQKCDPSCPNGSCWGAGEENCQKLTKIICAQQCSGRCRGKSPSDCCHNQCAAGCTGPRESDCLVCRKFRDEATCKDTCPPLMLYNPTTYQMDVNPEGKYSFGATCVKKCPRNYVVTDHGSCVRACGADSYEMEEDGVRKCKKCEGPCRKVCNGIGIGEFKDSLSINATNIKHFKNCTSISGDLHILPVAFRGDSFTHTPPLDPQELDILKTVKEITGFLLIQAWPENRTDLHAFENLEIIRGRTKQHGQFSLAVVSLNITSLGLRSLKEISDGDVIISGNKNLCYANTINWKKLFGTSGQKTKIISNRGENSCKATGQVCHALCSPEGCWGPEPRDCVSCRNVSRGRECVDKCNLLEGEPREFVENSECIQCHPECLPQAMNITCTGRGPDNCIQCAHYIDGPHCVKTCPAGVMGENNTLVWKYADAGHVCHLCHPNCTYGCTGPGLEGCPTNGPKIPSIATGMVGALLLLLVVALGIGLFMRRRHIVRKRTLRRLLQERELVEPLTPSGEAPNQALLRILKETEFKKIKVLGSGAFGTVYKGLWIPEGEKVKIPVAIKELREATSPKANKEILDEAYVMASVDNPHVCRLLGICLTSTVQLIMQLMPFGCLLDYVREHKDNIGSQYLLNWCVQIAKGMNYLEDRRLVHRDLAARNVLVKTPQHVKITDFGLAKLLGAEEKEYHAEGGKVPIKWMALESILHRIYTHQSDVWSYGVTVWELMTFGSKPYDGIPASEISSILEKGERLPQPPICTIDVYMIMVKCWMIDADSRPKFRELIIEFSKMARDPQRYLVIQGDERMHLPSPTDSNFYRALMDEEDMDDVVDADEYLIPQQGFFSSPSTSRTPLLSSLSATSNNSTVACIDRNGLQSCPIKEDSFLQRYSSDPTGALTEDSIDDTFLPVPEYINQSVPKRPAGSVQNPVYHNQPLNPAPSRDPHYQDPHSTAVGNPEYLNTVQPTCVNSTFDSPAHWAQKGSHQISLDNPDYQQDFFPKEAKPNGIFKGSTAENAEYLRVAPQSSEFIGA
Experiment: KINOMEscan ScanTK
Format: binding
Conditions: @1000nM, read-out: %Control
In this section we review reported remaining binding at 1 µM values for a set of molecules.

CCOC(=O)c1cnc(S(C)(=O)=O)nc1N1CCC[C@@H](n2nc(-c3ccc(Oc4ccccc4)cc3)c3c(N)ncnc32)C1 [Compound 8c]; 73%
COC(=O)c1cnc(S(C)(=O)=O)nc1N1CCCC(n2nc(-c3ccc(Oc4ccccc4)cc3)c3c(N)ncnc32)C1 (stereo not shown) [Compound 8b]; 42%
Cc1cnc(S(C)(=O)=O)nc1N1CCCC(n2nc(-c3ccc(Oc4ccccc4)cc3)c3c(N)ncnc32)C1 (stereo not shown) [Compound 8a]; 70%

# ---- query molecule ----
Q: Please report remaining binding at 1 µM with EGFR(T790M) (Homo sapiens, UniProt P00533, T790M) for item CNC(=O)c1cnc(S(C)(=O)=O)nc1N1CCCC(n2nc(-c3ccc(Oc4ccccc4)cc3)c3c(N)ncnc32)C1 (stereo not shown) [Compound 8d] .
Ans: 19%

* * *

Molecular target: EPHB1 (Homo sapiens)
Construct: purchased Eurofins DiscoverX KINOMEscan (scanTK)
Sequence (P54762 18-984): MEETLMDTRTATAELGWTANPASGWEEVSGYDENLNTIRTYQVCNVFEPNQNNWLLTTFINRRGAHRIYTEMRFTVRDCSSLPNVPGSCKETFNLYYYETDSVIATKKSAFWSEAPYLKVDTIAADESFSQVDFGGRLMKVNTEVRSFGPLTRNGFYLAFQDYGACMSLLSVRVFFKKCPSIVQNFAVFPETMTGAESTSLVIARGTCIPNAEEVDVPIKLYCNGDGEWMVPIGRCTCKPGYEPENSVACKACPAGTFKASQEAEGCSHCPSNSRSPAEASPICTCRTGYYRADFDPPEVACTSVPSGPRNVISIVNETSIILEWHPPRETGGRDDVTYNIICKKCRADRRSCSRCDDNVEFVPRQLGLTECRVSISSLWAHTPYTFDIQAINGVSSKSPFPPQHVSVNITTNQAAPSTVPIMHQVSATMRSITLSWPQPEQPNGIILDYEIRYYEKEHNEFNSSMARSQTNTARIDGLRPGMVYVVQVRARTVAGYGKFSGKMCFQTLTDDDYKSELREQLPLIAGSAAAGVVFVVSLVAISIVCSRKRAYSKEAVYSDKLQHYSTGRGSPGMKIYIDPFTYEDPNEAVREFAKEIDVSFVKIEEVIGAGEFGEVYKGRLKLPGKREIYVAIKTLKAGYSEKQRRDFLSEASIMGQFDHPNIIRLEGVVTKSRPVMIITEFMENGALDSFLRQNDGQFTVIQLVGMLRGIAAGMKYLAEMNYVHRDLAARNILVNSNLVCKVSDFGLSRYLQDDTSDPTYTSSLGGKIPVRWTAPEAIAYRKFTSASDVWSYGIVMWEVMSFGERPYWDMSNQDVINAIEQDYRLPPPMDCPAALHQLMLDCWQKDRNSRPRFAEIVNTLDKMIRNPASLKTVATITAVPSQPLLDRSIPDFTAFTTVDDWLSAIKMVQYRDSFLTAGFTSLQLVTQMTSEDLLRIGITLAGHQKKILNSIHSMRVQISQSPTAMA
Assay: KINOMEscan ScanTK
Format: binding
Settings: @1000nM; EPHB1
In this section we review reported difference in % of control versus compound Ib at 1 µM values for a set of compounds.
Express your answer in %, writing the number without its unit.

Cc1cnc(S(C)(=O)=O)nc1N1CCCC(n2nc(-c3ccc(Oc4ccccc4)cc3)c3c(N)ncnc32)C1 (stereo not shown); 3

Q: Retrieve difference in % of control versus compound Ib at 1 µM measured for CCOC(=O)c1cnc(S(C)(=O)=O)nc1N1CCC[C@@H](n2nc(-c3ccc(Oc4ccccc4)cc3)c3c(N)ncnc32)C1 and print it.
Ans: 1

Q: Retrieve difference in % of control versus compound Ib at 1 µM measured for COC(=O)c1cnc(S(C)(=O)=O)nc1N1CCCC(n2nc(-c3ccc(Oc4ccccc4)cc3)c3c(N)ncnc32)C1 (stereo not shown) and print it.
Ans: -2

Q: Retrieve difference in % of control versus compound Ib at 1 µM measured for CNC(=O)c1cnc(S(C)(=O)=O)nc1N1CCCC(n2nc(-c3ccc(Oc4ccccc4)cc3)c3c(N)ncnc32)C1 (stereo not shown) and print it.
Ans: 1

From: paper PMC11345841
